Tested on: Sorghum
Assay: Pre-emergence test/greenhouse
Type: in vivo
Conditions: 125 g ai./ha, after three weeks
endpoint: % damage, Sorghum (%)
# unit: % | format: bare number

Consider the reported % damage, Sorghum for these molecules:
1. CCSc1cccc(OC(F)(F)F)c1S(=O)(=O)NC(=O)n1nc(SC)n(C)c1=O ... 90
2. CCSc1cccc(C(F)(F)F)c1S(=O)(=O)NC(=O)n1nc(OC)n(C)c1=O ... 100
3. CCOc1nn(C(=O)NS(=O)(=O)c2c(OC(F)(F)F)cccc2SC(C)C)c(=O)n1C ... 80
4. CCOc1nn(C(=O)NS(=O)(=O)c2c(OC)cccc2SCCF)c(=O)n1C ... 100
5. CCc1nn(C(=O)NS(=O)(=O)c2c(OC)cccc2SC)c(=O)n1C ... 80
6. CSc1cccc(OC(F)(F)F)c1S(=O)(=O)NC(=O)n1nc(SC)n(C)c1=O ... 100
7. CCOc1nn(C(=O)NS(=O)(=O)c2c(OC)cccc2SCC)c(=O)n1C ... 90

For the next question, use this molecule.
Any idea what % damage, Sorghum came out for `CCSc1cccc(OC(F)(F)F)c1S(=O)(=O)NC(=O)n1nc(OC)n(C)c1=O` on Sorghum?
100

====

Tested on: Lolium
Assay: Pre-emergence test/greenhouse
Format: in vivo
Details: 125 g ai./ha, after three weeks
Procedure: Pre-emergence Test Solvent: 5 parts by weight of acetone Emulsifier: 1 part by weight of alkylaryl polyglycol ether To produce a suitable preparation of active compound, 1 part by weight of active compound is mixed with the stated amount of solvent, the stated amount of emulsifier is added and the concentrate is diluted with water to the desired concentration. Seeds of the test plants are sown in normal soil. […]
endpoint: % damage, Lolium (%)
# unit: % | format: bare number

Consider the reported % damage, Lolium for these molecules:
1. CCOc1nn(C(=O)NS(=O)(=O)c2c(SCC)cccc2C(F)(F)F)c(=O)n1C ... 90
2. CSc1cccc(OC(F)(F)F)c1S(=O)(=O)NC(=O)n1nc(SC)n(C)c1=O ... 100
3. CCOc1nn(C(=O)NS(=O)(=O)c2c(Cl)cccc2SC)c(=O)n1C ... 70
4. COc1cccc(SCCF)c1S(=O)(=O)NC(=O)n1nc(OC)n(C)c1=O ... 100
5. CCOc1nn(C(=O)NS(=O)(=O)c2c(OC)cccc2SCC)c(=O)n1C ... 100

Which % damage, Lolium reading was recorded for the molecule `CCSc1cccc(C(F)(F)F)c1S(=O)(=O)NC(=O)n1nc(OC)n(C)c1=O` ?
90

// repeat for `CCOc1nn(C(=O)NS(=O)(=O)c2c(OC)cccc2SCCF)c(=O)n1C` and report
100

// repeat for `CCOc1nn(C(=O)NS(=O)(=O)c2c(OC(F)(F)F)cccc2SCC)c(=O)n1C` and report
100

====

Tested on: Alopecurus
Test: Post-emergence test/greenhouse
Assay type: in vivo
Settings: 60 g ai./ha, after three weeks
endpoint: % damage, Alopecurus

Consider the reported % damage, Alopecurus for these compounds:
1. CCOc1nn(C(=O)NS(=O)(=O)c2c(OC)cccc2SC)c(=O)n1C ... 95%
2. CCOc1nn(C(=O)NS(=O)(=O)c2c(OC(F)(F)F)cccc2SCC)c(=O)n1C ... 60%
3. CCc1nn(C(=O)NS(=O)(=O)c2c(OC)cccc2SC)c(=O)n1C ... 90%
4. CCOc1nn(C(=O)NS(=O)(=O)c2c(OC)cccc2SCC)c(=O)n1C ... 95%
5. COc1cccc(SC)c1S(=O)(=O)NC(=O)n1nc(OC)n(C)c1=O ... 100%

Which % damage, Alopecurus reading was recorded for the compound `CCc1nn(C(=O)NS(=O)(=O)c2c(OC(F)(F)F)cccc2SC)c(=O)n1C` ?
90%

// repeat for `COc1cccc(SC(C)C)c1S(=O)(=O)NC(=O)n1nc(OC)n(C)c1=O` and report
90%

// repeat for `CCOc1nn(C(=O)NS(=O)(=O)c2c(SC)cccc2SC)c(=O)n1C` and report
90%
